Test: qHTS for Inhibitors of human tyrosyl-DNA phosphodiesterase 1 (TDP1): qHTS in cells in presence of CPT; note: nearly all actives have a fitted effect of over 55% in size
Conditions: chicken DT40 Tdp1-/-;hTDP1 cells + 20 nM CPT, ATP luminescence, 48 h; series mostly up to 46.2 µM
In all, about 420,000 compounds went through this assay and about 50,000 (12%) were called active. Roughly 26% stayed inconclusive and do not appear here. Calls come from the whole dose curve; as a rule, active = well fitted inhibition curve with a large enough effect; inconclusive = small, poorly fitted or top-dose-only effect; inactive = flat fitted curve, though single readings scatter. The list comes from a sample in which actives are over-represented; it also holds close analogues and randomly drawn compounds.
Lab note: assign the record to one of Y = active, N = inactive

I'd appreciate the recorded outcome for CC(C)NC(=S)N1CCN(S(C)(=O)=O)CC1 from this test.
N

Field entry: Cc1ccc(S(=O)(=O)N2CCN(C)CC2)cc1
N

Subsequent entry: Cc1ccc(CNC(=O)CCN2C(=O)[C@@H]3Cc4ccccc4CN3C2=O)cc1
N

Param item: O=[N+]([O-])c1ccc(S(=O)(=O)N2CCN(c3nc(-c4ccccc4)nc4ccccc34)CC2)cc1
N

Thanks! And Cc1cccc(C(=O)N2CCC(c3nc4ccccc4s3)CC2)c1 ?
N

Then what about the compound Cc1ccc(C)c(S(=O)(=O)n2nc(C)c(S(=O)(=O)N3CCC(C)CC3)c2C)c1 ?
N

// next record CC(C)(C)NC(=O)C(=O)NN=C1CCCCCCC1
N

Record: NS(=O)(=O)c1ccc(NC(=O)COc2ccc(S(=O)(=O)NC3CCCCC3)cc2)cc1
N

Continue with CCOc1ccc(C2/C(=C(/O)c3ccc4c(c3)CC(C)O4)C(=O)C(=O)N2CCCn2ccnc2)cc1 (stereo unspecified)
N

COc1ccc(C)cc1NC(=S)N1CCOCC1 , same question.
N

Item: CC(C)NC(=S)N1CCN(C(c2ccccc2)c2ccccc2)CC1
Y
